# System: alkaline phosphatase
# METHOD_SUMMARY: Residual alkaline phosphatase activity after storage as solution at room temperature (Test Example 1)
# Assay type: biochemical, calf
# COND: sugar 50 mM; solution, room temperature (25° C.), 24 hours
OBSERVED_PROPERTY: Residual activity (%)

{"COMPOUND": "OC[C@H]1O[C@H](O[C@H]2O[C@H](CO)[C@@H](O)[C@H](O)[C@H]2O)[C@H](O)[C@@H](O)[C@@H]1O", "EXPERIMENTAL_TARGET": "alkaline phosphatase", "OBSERVED_MEASUREMENT": 9.4}
{"COMPOUND": "C[C@@H]1OC(O)[C@@H](O)[C@H](O)[C@@H]1O[C@H]1O[C@H](CO)[C@@H](O)[C@H](O)[C@H]1O (stereo partly shown)", "EXPERIMENTAL_TARGET": "alkaline phosphatase", "OBSERVED_MEASUREMENT": 93.7}
{"COMPOUND": "C[C@H]1O[C@H](O[C@H]2O[C@H](CO)[C@@H](O)[C@H](O)[C@H]2O)[C@H](O)[C@@H](O)[C@H]1O", "EXPERIMENTAL_TARGET": "alkaline phosphatase", "OBSERVED_MEASUREMENT": 21.8}
{"COMPOUND": "OC[C@H]1O[C@H](O[C@H]2[C@H](O)[C@@H](O)[C@H](O)O[C@@H]2CO)[C@H](O)[C@@H](O)[C@@H]1O", "EXPERIMENTAL_TARGET": "alkaline phosphatase", "OBSERVED_MEASUREMENT": 3.3}

###

# Tested on: alkaline phosphatase
# METHOD_SUMMARY: Residual alkaline phosphatase activity after repeated freezing and thawing (Test Example 3)
# Assay type: biochemical, calf
# COND: sugar 50 mM; frozen (dry ice/ethanol) and thawed 10 times
Each entry below carries its recorded Residual activity.
OBSERVED_PROPERTY: Residual activity (%)

{"MOLECULE": "OC[C@H]1O[C@H](O[C@H]2[C@H](O)[C@@H](O)[C@H](O)O[C@@H]2CO)[C@H](O)[C@@H](O)[C@@H]1O", "EXPERIMENTAL_TARGET": "alkaline phosphatase", "READING_UNIT": "%", "OBSERVED_MEASUREMENT": 16.3}
{"MOLECULE": "C[C@H]1O[C@H](O[C@H]2O[C@H](CO)[C@@H](O)[C@H](O)[C@H]2O)[C@H](O)[C@@H](O)[C@H]1O", "EXPERIMENTAL_TARGET": "alkaline phosphatase", "READING_UNIT": "%", "OBSERVED_MEASUREMENT": 65.0}
{"MOLECULE": "OC[C@H]1O[C@H](O[C@H]2O[C@H](CO)[C@@H](O)[C@H](O)[C@H]2O)[C@H](O)[C@@H](O)[C@@H]1O", "EXPERIMENTAL_TARGET": "alkaline phosphatase", "READING_UNIT": "%", "OBSERVED_MEASUREMENT": 21.6}
{"MOLECULE": "C[C@@H]1OC(O)[C@@H](O)[C@H](O)[C@@H]1O[C@H]1O[C@H](CO)[C@@H](O)[C@H](O)[C@H]1O (stereo partly shown)", "EXPERIMENTAL_TARGET": "alkaline phosphatase", "READING_UNIT": "%", "OBSERVED_MEASUREMENT": 106.0}
